# Test system: Human papillomavirus type 1a protein E7 (residues 44-93)
# Measurement notes: HPV1a E7 fragment binders on microarrays, primary screen, biochemical, small-molecule microarray, residues 44-93, 635 nm fluorescence (AID 1108);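 further: E7 fragment applied at 1 µg/mL in TBST for 1 h at 4 C; score combines spot fluorescence with its signal to noise ratio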
# Test conditions: small-molecule microarray binding, fluorescence 635 nm; higher = more signal
Give measured composite z-score for each item. Keep answers brief.
Answer with a bare number; do not write a unit.

Name the recorded composite z-score for CCN1C(=O)[C@H]2[C@H]3[C@H](O)C=CC(=O)[C@@H]3CC[C@H]2C1=O .
0.907

Name the recorded composite z-score for COC(=O)[C@]1(CO)N=C(c2ccc(OCCCO)cc2)O[C@@H]1c1ccccc1N=[N+]=[N-] .
0.812

Name the recorded composite z-score for CC(CCC(=O)OC[C@H]1O[C@H](C#Cc2ccccc2)C=C[C@@H]1Oc1ccc(C)cc1)=NOC[C@@H](O)[C@H]1O[C@@H]2OC(C)(C)O[C@@H]2[C@H]1O .
-0.263

Name the recorded composite z-score for CCCNC(=O)OC[C@H]1O[C@H](CCON=C[C@@H](OC)[C@H](C)C=CCC(=O)OC)C=C[C@@H]1Oc1ccc(OC)cc1 .
0.0209

Name the recorded composite z-score for O=C1NC(=O)C2C1C=CC(C(O)Cc1ccccc1)N2Nc1ccccn1 (configuration not stated) .
0.555

Name the recorded composite z-score for CC(C)NC(=O)[C@@]1(C)c2ccccc2C(=O)N(Cc2cc(F)cc(C(F)(F)F)c2)[C@H]1c1ccc(CO)cc1 .
1.3

Name the recorded composite z-score for COC(=O)CC=C[C@H](C)[C@@H](OCc1ccccc1Br)C(C)C .
-0.261

Name the recorded composite z-score for N#Cc1ccc(NN2C(C(O)c3cc(C(F)(F)F)cc(C(F)(F)F)c3)C=CC3C(=O)N(c4ccccc4)C(=O)C32)cc1 (configuration not stated) .
1.39

Name the recorded composite z-score for C=CCOC(=O)[C@H]1[C@@H]2C(=O)O[C@@H](c3ccccc3)[C@@H](c3ccccc3)N2[C@@H](c2ccc(OCCOC(=O)[C@H]3C[C@H]4C(=O)N[C@@H](Cc5ccccc5)C(=O)N4[C@H]3c3ccc(O)cc3)cc2)[C@]12C(=O)Nc1ccccc12 .
0.516

Name the recorded composite z-score for C=CC[C@@H]1C=C[C@H](ON=Cc2ccc(C(=O)N3[C@H](c4ccc(C)cc4)[C@@H](C)CC[C@H]3C(=O)OC)cc2)[C@@H](CO)O1 .
0.792

Name the recorded composite z-score for CN1C(=O)C2C=CC(C(O)c3ccc(I)cc3)N(NC(=O)OC(C)(C)C)C2C1=O (configuration not stated) .
1.41

Name the recorded composite z-score for CC(CCN1CCc2nc(-c3ccccc3)c(-c3ccccc3)cc2C1)=NO[C@@H](C)c1cn([C@H](CO)Cc2ccccc2)nn1 .
-0.127

Name the recorded composite z-score for COCCCNC(=O)[C@@]1(C)c2ccccc2C(=O)N(Cc2ccc(OC(F)(F)F)cc2)[C@H]1c1ccc(CO)cc1 .
-1.56

Name the recorded composite z-score for COCC(=C=CC[C@@H](O)c1ccccc1OCCO)CCO .
0.692

Name the recorded composite z-score for CC(C)(C)N1CC=CC23O[C@@H]4C=CCCOC(=O)C4[C@H]2C(=O)N(CCCCCO)[C@@H]3C1=O (some centres not stated) .
0.433

Name the recorded composite z-score for CC(C)(C)OC(=O)CC[C@]1(C(N)=O)COC(c2ccc(OCCCO)cc2)=N1 .
0.0119

Name the recorded composite z-score for C/C=C\[C@@H](NCc1ccccc1Br)[C@@H](O)Cc1ccccc1 .
-0.594

Name the recorded composite z-score for CC(C)(C)OC(=O)CC[C@]1(C(=O)NCc2ccccc2)N=C(c2ccc(OCCCO)cc2)O[C@H]1c1ccccc1 .
1.02

Name the recorded composite z-score for CC(CCC(=O)OC[C@H]1O[C@H](C#Cc2ccccc2)C=C[C@@H]1Oc1ccc(C)cc1)=NOC[C@@H](O)COCc1ccco1 .
-0.412

Name the recorded composite z-score for C#C[C@@H]1Oc2ccccc2S(=O)(=O)N2CCC[C@H]12 .
-0.638

Name the recorded composite z-score for CO[C@@H]1COC(=O)CC=C[C@@H](C)[C@@H]2C=C[C@H](O)[C@@H](COC(=O)CCC[C@H]1C)O2 .
-1.05

Name the recorded composite z-score for CCOC(=O)[C@H](Cc1ccccc1)NC(=O)CCC1CC(OC(=O)NCc2ccc3c(c2)OCO3)CC2(CCCC(COC(=O)NCC3CCCCC3)O2)O1 (some centres not stated) .
1.31
